Hi there, I'd appreciate the recorded inhibition at 1 µM for every entry that follows.
- tested system: MNK1 (Homo sapiens (Human), UniProt Q9BUB5)
- Sequence (Q9BUB5 other isoform, or with tags, fused parts or gaps): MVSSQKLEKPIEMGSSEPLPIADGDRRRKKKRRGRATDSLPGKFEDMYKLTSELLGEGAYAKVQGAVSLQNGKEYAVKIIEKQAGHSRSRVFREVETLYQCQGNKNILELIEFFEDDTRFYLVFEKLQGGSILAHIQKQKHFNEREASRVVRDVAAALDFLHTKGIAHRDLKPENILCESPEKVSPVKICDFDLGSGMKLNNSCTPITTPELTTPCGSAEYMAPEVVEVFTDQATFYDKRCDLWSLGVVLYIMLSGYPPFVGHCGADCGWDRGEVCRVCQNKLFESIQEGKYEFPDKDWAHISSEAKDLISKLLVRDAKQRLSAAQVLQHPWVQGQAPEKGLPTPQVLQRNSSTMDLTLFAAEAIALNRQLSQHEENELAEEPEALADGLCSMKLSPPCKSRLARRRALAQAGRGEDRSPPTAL
- measurement protocol: MNK1 in vitro kinase assay (Assay 3), Z'-LYTE
- Assay type: biochemical
- details: compound concentration of 1 μM, read-out: MNK1 % INH
Give bare numbers, in %.

compound	tested system	inhibition at 1 µM [%]
Cc1cc(N=S(C)(C)=O)cc2ncnc(Nc3ccc(F)cc3O[C@H](C)C(=O)N3CCCCC3)c12 [Example 4.062]	MNK1 (Homo sapiens (Human), UniProt Q9BUB5)	88
Cc1cc(N=S2(=O)CCCC2)cc2ncnc(Nc3ccc(F)cc3OC(C)C#N)c12 (stereo not drawn) [Example 7.008]	MNK1 (Homo sapiens (Human), UniProt Q9BUB5)	99
Cc1cc(N=S(C)(C)=O)cc2ncnc(Nc3ccc(F)cc3O[C@H](C)C(=O)N(C)C3CCCC3)c12 [Example 4.053]	MNK1 (Homo sapiens (Human), UniProt Q9BUB5)	80

Hey, quick one: what's inhibition at 1 µM for each of these?
1. CC#CCNC(=O)[C@@H](C)Oc1cc(F)ccc1Nc1ncnc2cc(N=S3(=O)CCCC3)cc(C)c12 [Example 4.044]
2. CCOC(=O)[C@@H](C)Oc1cc(F)ccc1Nc1ncnc2cc(N=S(C)(C)=O)cc(C)c12 [Example 3.022]

1. 96
2. 98

Hey, quick one: what's inhibition at 1 µM for each of these?
1. CC(=O)N1CCS(=O)(=Nc2cc(C)c3c(Nc4ccc(F)cc4O[C@H](C)c4cc(C)no4)ncnc3c2)CC1 [Example 5.005]
2. C[C@@H](Oc1cc(F)ccc1Nc1ncnc2cc(N=S3(=O)CCC3)cc(F)c12)C(=O)NCC(F)(F)F [Example 4.100]
3. Cc1cc(N=S2(=O)CCCC2)cc2ncnc(Nc3ccc(F)cc3O[C@H](C)C(N)=O)c12 [Example 4.047]
4. Cc1cc(N=S2(=O)CCCC2)cc2ncnc(Nc3ccc(F)cc3O[C@H](C)C(=O)N(C)CCO)c12 [Example 4.028]
5. CCOC(=O)[C@H](C)Oc1cc(F)ccc1Nc1ncnc2cc(N=S(C)(C)=O)cc(C)c12 [Example 3.032]
6. CS(C)(=O)=Nc1cc(F)c2c(Nc3ccc(F)cc3OC(CF)CF)ncnc2c1 [Example 1.018]
7. Cc1cc(C(C)Oc2cc(C(N)=O)ccc2Nc2ncnc3cc(N=S(C)(C)=O)cc(C)c23)on1 (stereo not drawn) [Example 1.012]
8. O=S1(=Nc2cc(C(F)(F)F)c3c(Nc4ccc(F)cc4OC(CF)CF)ncnc3c2)CCOCC1 [Example 1.021]

95
97
86
86
26
93
96
52

Hey, quick one: what's inhibition at 1 µM for each of these?
1. Cc1cc(N=S2(=O)CCCC2)cc2ncnc(Nc3ccc(F)cc3OCc3ccccc3)c12 [Example 2.004]
2. C[C@@H](Oc1cc(F)ccc1Nc1ncnc2cc(N=S3(=O)CCC3)cc(Cl)c12)C(=O)NCC(F)(F)F [Example 4.138]

[75, 64]
